target: human HSL (Homo sapiens); construct: generate a full length human HSL ORF with a 3′-His6 tag; assay: Human Hormone-Sensitive Lipase (HSL) enzyme inhibition assay (colorimetric, DMPT substrate); conditions: human full length HSL-His6, 2,3-dimercapto-1-propanol tributyrate substrate, 37° C. 20 minutes, absorbance at 405 nm; read-out: HSL hum IC50
Sequence (Q05469 whole entry): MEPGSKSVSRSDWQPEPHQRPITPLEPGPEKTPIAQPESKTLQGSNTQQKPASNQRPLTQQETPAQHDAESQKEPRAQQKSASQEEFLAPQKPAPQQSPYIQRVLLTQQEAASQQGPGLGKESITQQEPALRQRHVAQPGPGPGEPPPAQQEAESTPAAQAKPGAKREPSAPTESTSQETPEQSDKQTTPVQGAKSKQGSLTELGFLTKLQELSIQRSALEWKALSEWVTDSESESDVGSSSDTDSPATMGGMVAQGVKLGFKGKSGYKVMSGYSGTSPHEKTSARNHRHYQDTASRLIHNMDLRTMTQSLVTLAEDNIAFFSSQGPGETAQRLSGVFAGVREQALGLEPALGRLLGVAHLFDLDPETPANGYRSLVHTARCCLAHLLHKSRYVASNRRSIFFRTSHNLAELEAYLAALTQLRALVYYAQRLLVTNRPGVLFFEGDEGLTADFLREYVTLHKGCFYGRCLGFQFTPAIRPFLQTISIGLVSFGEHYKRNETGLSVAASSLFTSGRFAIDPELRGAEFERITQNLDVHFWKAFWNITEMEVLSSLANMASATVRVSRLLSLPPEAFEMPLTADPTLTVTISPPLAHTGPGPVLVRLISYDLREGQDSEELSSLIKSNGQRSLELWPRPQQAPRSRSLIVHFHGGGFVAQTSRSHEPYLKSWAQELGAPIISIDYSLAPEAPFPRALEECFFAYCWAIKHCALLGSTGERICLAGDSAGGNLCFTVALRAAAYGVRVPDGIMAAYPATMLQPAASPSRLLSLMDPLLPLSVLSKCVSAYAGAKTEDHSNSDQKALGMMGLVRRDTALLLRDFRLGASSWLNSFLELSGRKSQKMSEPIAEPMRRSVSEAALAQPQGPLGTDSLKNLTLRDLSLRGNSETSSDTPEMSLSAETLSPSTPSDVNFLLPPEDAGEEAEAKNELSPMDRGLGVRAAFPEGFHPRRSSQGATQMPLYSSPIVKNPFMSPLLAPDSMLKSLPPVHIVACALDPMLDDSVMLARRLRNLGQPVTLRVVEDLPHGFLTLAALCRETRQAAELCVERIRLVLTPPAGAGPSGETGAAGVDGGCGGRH
measurement label: IC50 (µM)

>>> value_measured("CC[C@]1(O)CC[C@]2(CCN(c3ccc(OCC(F)(F)F)nc3)C2=O)CC1 [Example 168]")
0.07

A: O=C(NC1CC1)O[C@H]1CC[C@@]2(CCN(c3ccc(OC(F)(F)F)cc3)C2=O)CC1 [Example 29]
B: O=C1N(c2ccc(OC(F)(F)F)cc2)CC[C@]12CC[C@@](O)(C1CC1)CC2 [Example 70]
stdin: When A and B are compared, which has the higher number for IC50? Mark your selection by writing its label.
stdout: B
(B: 0.13 µM, A: 0.08 µM)
